Please find below pIC50 data on Tyrosine-protein kinase JAK2 (Homo sapiens) compiled from the literature.
pIC50: −log10 of the molar value.

[[record]]
molecule = "Cn1cc(-c2cc3nccn3c(-c3cnn(C4(CC#N)CN(CC5CCOCC5)C4)c3)n2)cn1"
observable = "pIC50"
reading = "< 6.00"

[[record]]
molecule = "N#Cc1cc(-c2ncnc(Nc3ccc(N4CCN(C5COC5)CC4)cc3)n2)ccc1N1CC2(CCOCC2)C1"
observable = "pIC50"
reading = 6.77

[[record]]
molecule = "CCC(=O)c1cnc(Nc2cnc(O[C@H]3CCN(C)C[C@@H]3F)cn2)cc1Nc1cccc(-c2ncn(C)n2)c1OC"
observable = "pIC50"
reading = "≤ 6.30"

[[record]]
molecule = "N#CCC1(n2cc(-c3ncnc4[nH]ccc34)cn2)CN(C2CCN(C(=O)c3cc(F)c(F)cc3F)CC2)C1"
observable = "pIC50"
reading = "7.30 to 8.00"

[[record]]
molecule = "CCN1CCC(N2C(=O)c3cc4nc(-c5c(NC[C@@H](O)COc6ccc(C)cc6C)cc[nH]c5=O)[nH]c4cc3C2=O)CC1"
observable = "pIC50"
reading = "5.30 to 6.30"

[[record]]
molecule = "N#Cc1cc(-c2ccnc(Nc3ccc(N4CCOCC4)cc3)n2)ccc1O"
observable = "pIC50"
reading = "> 6.30"

[[record]]
molecule = "CC[C@@H](Cn1ccc2cnc(Nc3cnn(C(C)C(=O)O)c3)nc21)C(C)C (some centres unmarked)"
observable = "pIC50"
reading = "> 7.00"

[[record]]
molecule = "CCS(=O)(=O)N1CC(CC#N)(n2cc(-c3nc(Nc4cnn(C5CN(CC6CC6)C5)c4)nc4ccsc34)cn2)C1"
observable = "pIC50"
reading = "> 7.30"


Entry `N#CCC1(n2cc(-c3ncnc4[nH]ccc34)cn2)CN(C2CCN(C(=O)OCc3cc(F)cc(F)c3)CC2)C1` has what pIC50? 7.00 to 7.30

Entry `N#CCC1(n2cc(-c3ncnc4[nH]ccc34)cn2)CN(C2CCN(C(=O)c3cc(F)c(F)c(F)c3F)CC2)C1` has what pIC50? 7.00 to 7.30

Entry `N#Cc1cc(-c2ncnc(Nc3ccc(N4CCN(C5COC5)CC4)cc3F)n2)ccc1O[C@H]1CCN(C(=O)[C@@H]2CCC(=O)N2)C[C@H]1F` has what pIC50? ≤ 6.00

###

Please find below IC50 data on Tyrosine-protein kinase JAK2 (Homo sapiens) compiled from the literature.

[[record]]
molecule = "Cc1cnc(Nc2ccc(C(=O)O)cc2)nc1-c1cnn(C(CC#N)C2CCCC2)c1 (racemic)"
reading = "< 0.1 µM"

[[record]]
molecule = "O=C(Nc1cc[nH]n1)c1ccc(-c2ccnc(Nc3ccc(N4CCOCC4)cc3)n2)cc1"
reading = "> 1 µM"

[[record]]
molecule = "Cc1ccc(NC(=O)c2cc(C(F)(F)F)ccn2)cc1N1CCc2nc(Nc3ccc(N4CCN(C)CC4)cc3)ncc2C1=O"
reading = "0.048 µM"

[[record]]
molecule = "CCOC(=O)N1CC2CC(Nc3nc(Nc4cnn(C)c4)ncc3Cl)CC2C1 (centres unmarked)"
reading = "0.136 µM"

[[record]]
molecule = "N#CCC(=O)N1CCC[C@@H](Nc2c(-c3nnc[nH]3)cnc3[nH]ccc23)C1"
reading = "0.01 to 0.1 µM"

[[record]]
molecule = "N#Cc1ccc(C(=O)Nc2cccc(C(F)(F)F)c2)cc1-c1ccc2c(c1)[nH]c1ncncc12"
reading = "≤ 0.5 µM"

[[record]]
molecule = "CC(=O)Nc1ccc(Nc2ncc3ccn(S(=O)(=O)c4cccc5cccnc45)c3n2)cc1"
reading = "< 0.02 µM"


Please tell me: IC50 of `CC(C)(O)Cn1nnc2cc(Nc3ncc(Cl)c(NC4CCN(c5ccc(C#N)cn5)CC4)n3)ccc21` , system Tyrosine-protein kinase JAK2 (Homo sapiens)? 0.002 µM
